Hello, the source for this data is paper PMC5723703, in case you need it.

# assay_system: S1P1 receptor (Homo sapiens)
# Sequence (P21453 whole entry): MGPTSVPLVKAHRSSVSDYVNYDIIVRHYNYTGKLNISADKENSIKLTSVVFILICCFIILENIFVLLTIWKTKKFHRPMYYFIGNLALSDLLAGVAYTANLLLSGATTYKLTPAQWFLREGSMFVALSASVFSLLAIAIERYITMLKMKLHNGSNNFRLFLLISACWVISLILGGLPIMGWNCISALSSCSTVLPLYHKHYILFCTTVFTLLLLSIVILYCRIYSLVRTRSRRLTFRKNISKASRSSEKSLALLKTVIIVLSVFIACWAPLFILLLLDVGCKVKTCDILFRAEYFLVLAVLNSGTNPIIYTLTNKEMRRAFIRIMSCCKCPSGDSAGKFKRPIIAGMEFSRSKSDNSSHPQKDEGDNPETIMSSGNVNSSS
# Assay type: biochemical
measured_quantity: EC50 (nM)
Express your answer in nM, writing the number without its unit.

Field EC50 (entry "CCc1cc(-c2noc(-c3cc(OC)nc(C4CCCC4)c3)n2)cc(C)c1OC[C@@H](O)CO" ) reads 2

====

# assay_system: UniProtKB O95136
# Sequence (O95136 whole entry): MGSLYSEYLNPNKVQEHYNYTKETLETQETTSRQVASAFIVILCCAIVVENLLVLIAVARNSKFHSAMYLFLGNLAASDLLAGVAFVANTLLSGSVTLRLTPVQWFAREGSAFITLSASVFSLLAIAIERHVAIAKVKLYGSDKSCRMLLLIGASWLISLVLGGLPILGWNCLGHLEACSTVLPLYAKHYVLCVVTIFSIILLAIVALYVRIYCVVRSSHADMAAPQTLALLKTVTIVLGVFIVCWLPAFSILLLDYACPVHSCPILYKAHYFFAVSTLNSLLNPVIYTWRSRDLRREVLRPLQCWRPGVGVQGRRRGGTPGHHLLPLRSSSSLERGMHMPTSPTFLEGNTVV
measured_quantity: EC50

Case "CCc1cc(-c2noc(-c3cc(OC)nc(C4CCCC4)c3)n2)cc(C)c1OC[C@@H](O)CO" , UniProtKB O95136, EC50 recorded as > 10 µM

====

# assay_system: human S1P5 receptor (Homo sapiens)
# Sequence (Q9H228 whole entry): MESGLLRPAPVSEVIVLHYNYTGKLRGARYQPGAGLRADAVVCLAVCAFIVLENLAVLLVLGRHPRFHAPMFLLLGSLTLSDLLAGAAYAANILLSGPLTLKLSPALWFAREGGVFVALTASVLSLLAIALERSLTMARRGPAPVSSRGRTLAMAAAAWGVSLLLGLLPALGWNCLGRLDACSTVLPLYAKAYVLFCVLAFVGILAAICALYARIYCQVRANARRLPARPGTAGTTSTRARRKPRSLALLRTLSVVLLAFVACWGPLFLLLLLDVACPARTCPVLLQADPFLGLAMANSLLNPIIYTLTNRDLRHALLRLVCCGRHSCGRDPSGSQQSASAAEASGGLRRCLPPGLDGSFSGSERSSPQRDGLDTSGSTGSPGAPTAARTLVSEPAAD
measured_quantity: pEC50
Units for pEC50: none; it is -log10 of a concentration expressed in mol/L.

Case CCc1cc(-c2noc(-c3cc(OC)nc(C4CCCC4)c3)n2)cc(C)c1OC[C@@H](O)CO [Cenerimod] , human S1P5 receptor (Homo sapiens), pEC50 recorded as 7.44
